Tested on: DRAK1;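 note: KINOMEscan kinase panel screen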
Construct: gene STK17A
Conditions: concentration: 1 μM, replicates: in singlicate; n = 1
readout-kind: %Inh (%)
All answers are understood in %, so give the number only.

                            molecule_smiles  readout_kind  units_text  meas_value
0  CCNC(=O)/C=C/c1n[nH]c2cc(Sc3ccccc3C(=O)NC)ccc12          %Inh           %          49
1     O=C(Nc1n[nH]c2cc(-c3cccs3)ccc12)C1CC1          %Inh           %          14
2          Cc1cccc(Nc2nc(NCCN)ncc2C(N)=O)c1          %Inh           %          58
3  O=C(O)C(F)(F)F.O=c1[nH]ccc2nc(N[C@@H]3CCNC3)nc(Nc3cc(Cl)cc(Cl)c3)c12          %Inh           %        99.7

Now let's try a different one.
Input: Give its %Inh value. Item: `Cl.N#CCc1ccc(Nc2nccc(Nc3ccc(Oc4ccccc4)cc3)n2)cc1`
Output: 22

Data provenance is paper PMC5540273.
